The entries below pair molecules with Ki values for 5-hydroxytryptamine receptor 2A (Homo sapiens, UniProt P28223), as found in several publications.
Give bare numbers, in µM.

See these solved cases before continuing.
# molecule, observed result
rows = [
    ("CNc1nc(NCc2ccc(NS(C)(=O)=O)cc2Cl)cc(-c2ccccn2)n1", 2.12),
    ("S=C(NCCCc1c[nH]cn1)NCCCN(Cc1ccc(Cl)c(Cl)c1)c1ccc(Br)cn1", 0.202),
    ("COc1cc(/C=C2\\N=C(N)NC2=O)c(OC)cc1Br.Cl", 0.019),
    ("O=c1ccc2ccc(OCCCCN3CCN(c4cccc5sccc45)CC3)cc2[nH]1", 0.0183),
    ("O=S(=O)(c1cccc(NC2CCNCC2)c1)n1cccc1-c1ccccc1", 1.54),
    ("O=C(c1cc2c(cc1F)OC(c1ccc(F)cc1)(c1ccc(Cl)cc1Cl)O2)N1CCOCC1 (stereo not drawn)", 2.66),
    ("N#Cc1c[nH]c2c(C(=O)N3CCN(CCc4ccc(F)cc4)CC3)cccc12", 0.00264),
    ("CC(=O)N1CCCC(N2C(=O)c3cccc(N)c3C2=O)C1 (stereo not drawn)", 5.2),
]

# map each molecule to its Ki
1. O=C(O)C1CN(Cc2ccc(OCc3ccc(Cl)c(Cl)c3)cc2)C1
2. CCc1ccc(OCc2ccccc2C(=O)Nc2ccc3nc(C)cc(N)c3c2)cc1

4.61
0.548

Give one value of Ki per listed molecule.
1. CCc1cc2c(cc1CC)CC(NC[C@H](O)c1ccc(O)c3[nH]c(=O)ccc13)C2
2. CCCCN1CCC(COC(=O)c2cc(Cl)c(N)c3c2OCCO3)CC1
3. O=C(NC1CCNCC1)c1ccn(S(=O)(=O)c2cccc(Cl)c2)c1-c1cccc(F)c1
4. O=S(=O)(c1cccc(N2CCNCC2)c1)n1cccc1-c1cccc(F)c1
5. Nc1nc2c(c(N3CCNCC3)n1)CCC1=C2[C@@H]2CCCC[C@@H]2O1
6. COc1ccc(CNC(=O)c2cc(-c3cncc(Cl)c3)cnc2-c2ccccn2)nc1OC

2.02
0.964
10.6
2.51
6.43
4.59
